A collection of compounds and their measured melting point

// solved cases for melting point follow
compound=CCOC(=O)c1c(CN(CC)CC)nc2sc3c(c2c1-c1ccc(OC)c(OC)c1)CCN(S(C)(=O)=O)C3 outcome_measure="melting point" reading="147 to 148 °C"
compound=COC(=O)c1[nH]c2cccc3c2c1CCNC3=O outcome_measure="melting point" reading="266 to 267 °C"
compound="CC(=O)OCC(CO)CCn1cnc2c(=O)[nH]c(N)nc21 (stereo not drawn)" outcome_measure="melting point" reading="194 to 200 °C"
compound=N[C@@H](CN1CCC(=C2c3ccccc3CCc3ccccc32)CC1)C(=O)O outcome_measure="melting point" reading="150 to 151 °C"
compound=CCOc1c(N)cc(-c2cccc3ccccc23)c2nc(C(=O)O)ccc12 outcome_measure="melting point" reading="182 to 184 °C"

According to the records, this compound COc1ccc(C(F)(F)F)cc1C(=O)c1ccc(C#N)cc1 displays melting point of 88 °C

Note to self: melting point recorded for CCN(CC)Cc1nc(-c2ncn3c2CN(C)C(=O)c2c(Cl)cccc2-3)no1 was 250 to 252 °C

Given item COc1cc(OC)nc(O[C@@H]2CCCC[C@H]2C(=O)NS(=O)(=O)c2ccccc2)n1 (relative stereo) , the value recorded as its melting point is 175 °C

---

outcome-measure: melting point

The reported melting point of the compound CC(=O)Nc1ccc(O)c(C(=O)CCC(=O)O)c1 was 205 to 206 °C

For record COC(=O)C1=C(C)NC(C)=C(C(=O)OCC2CCCO2)C1c1cccc(NC(C)=O)c1 (configuration not stated) the listed melting point is 158 to 160 °C

The reported value for COc1ccc2nccc(NC(=O)N3CCN(CC(=O)c4cnc5ccccc5n4)CC3)c2n1 in terms of melting point is 167 to 169 °C

---

Measured melting point accompanies every entry in the list below.

compound="COc1ccc(C2=NOC3(C2)C(=O)CN(C)C3=O)cc1OC1CCCC1 (stereo unspecified)" reading="169 to 170 °C"

Form: compound = CCn1nc2c(N)nc3ccccc3c2c1CC1(F)CCN(S(C)(=O)=O)CC1 ; melting point = 269 to 271 °C

Record summary for CC(C)Oc1cc(Oc2ccc(S(C)(=O)=O)cn2)cc2cc(C3=NCC(CCO)S3)[nH]c12 (stereo unspecified) : reported melting point = 172 to 173 °C

# melting point of CCOC(=O)[C@H](CCc1ccccc1)N[C@@H](C)C(=O)N1CC2(C[C@H]1C(=O)O)SCCS2 = 124 to 126 °C

# melting point of O=C(OCCCCc1ccc2[nH]c(=O)oc2c1)C(F)(F)F = 100 to 103 °C

# melting point (compound: Nn1c(-c2ccccc2Cl)nnc1-c1ccccc1Cl ) is 168 to 170 °C

---

outcome-measure: melting point

See these solved cases before continuing.
molecule="CCc1cn(C2CC(O)C(CNC(=O)c3ccc4ccccc4c3)O2)c(=O)[nH]c1=O (centres undefined)" reading="242 to 244 °C"
molecule=O=C(O)c1ccc(-c2cc(=O)n(-c3ccccc3)s2)cc1 reading="260 to 261 °C"
molecule=Cc1nc(C=Cc2nc3ccc(F)cc3c(=O)n2-c2ccccc2Br)cs1 reading="233 to 234 °C"
molecule="CC(CC1COC(c2ccc(C(=O)Nc3ccc(C#N)cc3)cc2)OC1)C(O)(Cn1cncn1)c1ccc(F)cc1F (centres undefined)" reading="159 °C"
molecule=Cc1cc(-c2ccc(C(F)(F)F)cc2)nc(-c2ccnc(-c3cccc(S(N)(=O)=O)c3)c2)c1 reading="238 °C"
molecule="CC(CCn1ccnc1)N=C1c2cccc3cccc(c23)N1C(c1ccccc1)c1ccccc1 (centres undefined)" reading="55 to 64 °C"
molecule=C=Cc1ncc2c(c1COC)c1c(OCc3ccccc3)cccc1n2S(=O)(=O)c1ccc(C)cc1 reading="141 to 143 °C"
molecule=COC(=O)C(CCCCN1C(=O)c2ccccc2C1=O)C(=O)OC reading="55 to 58 °C"

Please fill in: melting point reported for Nc1ncccc1NCc1ccc(OCc2cccc(F)c2)cc1 = 91 to 93 °C

---

outcome-measure: melting point

compound=CCOC(=O)[C@H](Cc1ccc(Nc2nccc3ccncc23)cc1)NC1=CC(=O)C12CCOCC2 outcome_measure="melting point" reading="112 °C"
compound=Cc1cc(C(=S)Cl)c(Cl)cc1Cl outcome_measure="melting point" reading="94 to 95 °C"
compound=CCN(C(=O)NS(=O)(=O)c1ccccc1)c1ccc(Cl)cc1 outcome_measure="melting point" reading="145 to 146 °C"
compound=CC1(C)Oc2c(ccc(Cl)c2N)C1=O outcome_measure="melting point" reading="91.5 to 93.5 °C"
compound="CCOC(Cc1ccc(OCCN2COc3ccccc3C2=O)cc1)C(=O)O (configuration not stated)" outcome_measure="melting point" reading="103 to 105 °C"
compound=COc1ccccc1Oc1ccc(Cl)cc1C(=O)O outcome_measure="melting point" reading="115 to 118 °C"

--- query ---
// recorded melting point for COc1ccc2c(c1)c(CCO)c(C)n2-c1ncnc2cc(Cl)ccc12 : 148 to 150 °C

---

Catalogue of compounds with associated melting point

For this compound ( O=C(O)CCCOc1ccc(OCc2ccccc2)cc1 ), measured melting point is 125 to 126 °C

Per the record, COc1cc(OC)nc(C(=O)c2nccc(-c3ccccc3)c2C(=O)n2ccnc2)c1 has melting point of 126 to 128 °C

Entry CCCC1(C(C)(C)C(=O)Oc2ccc(N)cc2)C(=O)NC(=O)NC1=O , melting point reported as 212 to 215 °C

The compound COc1cc(N2CCC(N3CCOCC3)C2)ccc1Nc1ncc2ccc(-c3ccccc3N(C)S(C)(=O)=O)n2n1 (stereo not given) showed melting point equal to 110 to 119 °C

Reported melting point ( CCCc1ccc(OCc2ccc(OCc3nc(-c4ccccc4)oc3C)cc2)c(CC(=O)O)c1 ) = 116 to 117 °C

# melting point (compound: CC(=NOCCOc1ccc(CC2SC(=O)N(C(c3ccccc3)(c3ccccc3)c3ccccc3)C2=O)cc1)c1ccc(N(C)S(=O)(=O)c2ccccc2)cc1 (stereo not given) ) is 143 to 145 °C

melting point measured on CCCc1nc(C)c2nnc3ccc(F)cc3n12 = 124 to 126 °C

# compound O=P(O)(O)Cc1ccc(C(F)(F)F)cc1 ; its melting point = 163 to 164 °C

The compound O=C(O)Cc1cc2c(cc1Cc1ccccc1)OCO2 showed melting point equal to 116 to 117 °C

Memo: CCCCCCCCCCCC(=O)Oc1c(C(=O)c2ccc(Cl)cc2Cl)c(C)nn1C , reported melting point: 56 °C

Reported melting point of NC(=NO)c1ccc(C(F)(F)F)cn1 : 130 to 133 °C

Lab note: CC(O)(c1nc2cc(S(=O)(=O)c3ccccc3)ccc2s1)C(F)(F)F (stereo not given) gave melting point of 126 to 128 °C

What the record says about Cn1ncc(/C=C/C(=O)Nc2ccc(Cn3ccnc3)cc2)c1-c1ccc(F)cc1 : melting point is 213 to 214 °C

Entry under test: COc1cc(OC)c2c(=O)cc(-c3ccccc3Cl)oc2c1C1CCN(C)C1CO (stereo not given) . Its melting point was 91 to 93 °C

Just so you know, measured melting point for C=CCN(C(C)=O)c1cccc(C(=O)C=CN(C)C)c1 came out at 91 to 94 °C

---

outcome-measure: melting point

Known results for compounds:
compound=N#Cc1ccc2c(c1)Sc1ccccc1CC2=O reading="166 to 170 °C"
compound=CS(=O)(=O)c1cccc(S(C)(=O)=O)n1 reading="192 to 195 °C"
compound=NS(=O)(=O)c1ccc(SCCCO)c(C(=O)O)c1 reading="204 to 206 °C"
compound=CN1CCN(c2nc3ccccc3n2CCOc2ccccc2)CC1 reading="152 to 154 °C"
compound=COCCOc1ccc(Nc2nc(Nc3cc4c(cc3OC)CCN(CC(=O)N(C)C)CC4)ncc2Cl)c(S(=O)(=O)C(C)C)c1 reading="65 to 75 °C"

For O=C1c2cc(OCc3ccc4ccccc4n3)ccc2CCC1Cc1ccccc1 (stereo not drawn) the compound record lists melting point as 117 to 118 °C

// melting point lookup, compound = COC1=C(OC)C(=O)C(CCCCCCCCCCCCCCCCCCO)=C(C)C1=O , result: 81 °C

Reported melting point for COCc1nnc(NC(=O)C2c3ccccc3Oc3ccccc32)o1 was 113 to 114 °C

---

Recorded measurements of melting point, one per entry

Solved entries (count: 3):
molecule="Cc1cccc(CC2CNC(=O)O2)c1 (centres undefined)" reading="89 to 90.5 °C"
molecule="COc1ccc2c3c1OC1C(O)C(C)(C)C(C)C4C(C2)N(C)CCC314 (centres undefined)" reading="110 to 112 °C"
molecule=Cn1cncc1C(c1cccs1)c1cccs1 reading="78.5 to 80 °C"

Consider CN1CCN(Cc2ccc(COc3cccc4c3CN(C3CCC(=O)NC3=O)C4=O)cc2)CC1 (centres undefined) . Its measured melting point is 188 to 190 °C

Record C=CCCCCCCCCC(=O)N[C@H]1CCCNC(=O)C1 . Reported melting point: 83 to 84 °C

Recorded melting point (molecule CC(C)N1C(=O)C(C)(C)N=C(c2ccccc2Cl)c2cc(N)ccc21 ): 243 to 244 °C

melting point recorded for this molecule, COc1cc(Oc2ccc(S(C)(=O)=O)cc2)cc2cc(C3=NCC(CC(N)=O)S3)[nH]c12 (centres undefined) , is 169 to 170 °C

Measured melting point, COC(=O)c1ccc2nc3cc(C)sc3c(=O)n2c1 : 215 to 216 °C

In plain terms, Cc1ccc(O)c(-c2csc(N(C)C)n2)c1 has a documented melting point of 108 to 110 °C
